- assay-summary: Plasma drug concentrations in treated infected gerbils
- Type: in vivo
- measurement-context: gerbil, in vivo, sc, 10 mg/kg, drug concentration 24 h after last dose
endpoint-label: concentration at 24 h after last dose (nM)
Report the value in nM with no unit label.

### Prompt Tell me concentration at 24 h after last dose reported for COC(=O)Nc1nc2cc(C(=O)c3ccc(F)cc3)ccc2[nH]1 [compound 1, Flubendazole, reference compound]
### Response 178

* * *

- assay-summary: Metabolic stability in gerbil microsomes
- Format: in vitro ADME
- Experimental: We characterized the in vitro ADME properties of 8a in preparation for evaluation of this compound in our primary in vivo model in gerbils. […] Additionally, when plasma obtained from treated animals at necropsy was analyzed for 8a, we observed an outcome similar to that observed in the adult implantation model, e.g., that measurable levels were present at this time point in the subcutaneous-dosed groups but not in the orally dosed groups, weeks after administration of the drug. […]
endpoint-label: microsomal CLint

### Prompt Tell me microsomal CLint reported for COC(=O)Nc1nc2cc(C(=O)NCc3ccc4c(c3)B(O)OC4(C)C)ccc2[nH]1
### Response < 4 µL/min/mg

* * *

For each of the compounds below, state its IC50.
- Test system: G2/M arrest (functional indicator of interaction with mammalian tubulin)
- assay-summary: mammalian G2/M arrest assay
- Format: cell-based
- measurement-context: Table 1; read-out: G2/M arrest IC50
Report the value in µM with no unit label.

### Prompt Tell me IC50 reported for COC(=O)Nc1nc2cc(C(=O)c3ccc(F)cc3)ccc2[nH]1 [compound 1, Flubendazole, reference compound]
### Response 0.67

### Prompt Tell me IC50 reported for COC(=O)Nc1nc2cc(C(=O)NCc3ccc4c(c3)B(O)OC4(C)C)ccc2[nH]1 [8a]
### Response 13

* * *

- assay-summary: Plasma drug concentrations in treated infected gerbils
- Type: in vivo
- measurement-context: gerbil, plasma, sc, 100 mg/kg, B. pahangi model, necropsy day 63; 100 mg/kg × 14 days, QD, SC (suspension)
endpoint-label: concentration at 63 day (necropsy) (nM)
Report the value in nM with no unit label.

### Prompt Tell me concentration at 63 day (necropsy) reported for COC(=O)Nc1nc2cc(C(=O)NCc3ccc4c(c3)B(O)OC4(C)C)ccc2[nH]1 [8a]
### Response 1150

* * *

- assay-summary: Plasma drug concentrations in treated infected gerbils
- Format: in vivo
- measurement-context: gerbil, plasma, sc, 300 mg/kg, L. sigmodontis model, necropsy day 63; 300 mg/kg × 7 days, QD, SC (suspension)
endpoint-label: concentration at 63 day (necropsy) (µM)
Report the value in µM with no unit label.

### Prompt Tell me concentration at 63 day (necropsy) reported for COC(=O)Nc1nc2cc(C(=O)NCc3ccc4c(c3)B(O)OC4(C)C)ccc2[nH]1 [8a]
### Response 0.48

* * *

- assay-summary: Plasma drug concentrations in treated infected gerbils
- Type: in vivo
- measurement-context: gerbil, plasma, po, 100 mg/kg, L. sigmodontis model; 100 mg/kg × 28 days, QD, PO (suspension); read-out: drug concentration 24 h after last dose
endpoint-label: concentration at 24 h after last dose (nM)
Report the value in nM with no unit label.

### Prompt Tell me concentration at 24 h after last dose reported for COC(=O)Nc1nc2cc(C(=O)NCc3ccc4c(c3)B(O)OC4(C)C)ccc2[nH]1
### Response 210

Hey, just so you know, these numbers are from paper PMC7026885.
